- systemName: recombinant human kinase domain of JAK3 (Homo sapiens (Human), UniProt P52333)
- Sequence (P52333 822-1111): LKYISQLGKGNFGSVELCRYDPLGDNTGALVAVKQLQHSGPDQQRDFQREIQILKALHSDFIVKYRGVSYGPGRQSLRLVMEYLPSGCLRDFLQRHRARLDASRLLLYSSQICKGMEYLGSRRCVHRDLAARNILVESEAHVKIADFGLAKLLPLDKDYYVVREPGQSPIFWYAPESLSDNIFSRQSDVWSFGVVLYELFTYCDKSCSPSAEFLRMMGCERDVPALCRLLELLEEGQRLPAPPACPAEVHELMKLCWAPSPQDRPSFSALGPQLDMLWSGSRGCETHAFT
- procedureText: JAK Caliper enzyme assay at 1 mM ATP (JAK3);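 further: microfluidic mobility-shift readout of synthetic peptide phosphorylation, percent product converted from peak heights, normalized to DMSO-only wells as uninhibited baseline, room temperature incubation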
- Format: biochemical
- testContext: 1 mM ATP; read-out: IC50 (nM) JAK3
quantity: IC50

molecule Cc1cc(Nc2nccc(N3C[C@H]4CC[C@@H](C3)N4C(=O)[C@@H]3CC3(F)F)n2)cnc1C(N)=O [Example 35] , IC50 observed: > 10000 nM

The reported IC50 of the molecule O=C([C@@H]1CC1(F)F)N1[C@@H]2CC[C@H]1CN(c1ccnc(Nc3cnc(N4CC(O)C4)c(F)c3)n1)C2 [Example 22] was > 10000 nM

Recorded result, CNC(=O)c1ncc(Nc2nccc(N3C[C@H]4CC[C@@H](C3)N4C(=O)[C@@H]3C[C@H]3F)n2)cc1C [Example 45] , IC50: 7400 nM

IC50 for CNC(=O)c1ncc(Nc2ncc(F)c(N3C[C@H]4[C@@H](C)[C@@]4(NC(=O)C4CC4)C3)n2)cc1C [Example 100] is > 10000 nM

###

- systemName: recombinant human kinase domain of JAK1 (Homo sapiens (Human))
- Sequence (P23458 875-1153): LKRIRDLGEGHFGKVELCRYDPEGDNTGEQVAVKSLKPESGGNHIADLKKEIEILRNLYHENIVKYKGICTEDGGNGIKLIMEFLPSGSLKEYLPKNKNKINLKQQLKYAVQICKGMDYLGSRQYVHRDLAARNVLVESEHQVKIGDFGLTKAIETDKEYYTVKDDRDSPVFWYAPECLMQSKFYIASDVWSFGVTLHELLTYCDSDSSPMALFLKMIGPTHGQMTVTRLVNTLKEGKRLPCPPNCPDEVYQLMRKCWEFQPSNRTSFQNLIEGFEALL
- procedureText: JAK Caliper enzyme assay at 1 mM ATP (JAK1)
- Assay type: biochemical
- testContext: 1 mM ATP; read-out: IC50 (nM) JAK1
quantity: IC50 (nM)
Enter your answer as a number in nM; do not include the unit.

So, C[C@@H]1[C@@H]2CN(c3nc(Nc4cnc(CO)c(Cl)c4)ncc3F)C[C@]12NC(=O)C1CC1 [Example 105] ? Its IC50 was 1570

Recorded result, CCCNC(=O)c1cc(Nc2ncc(F)c(N3C[C@H]4CC[C@@H](C3)N4C(=O)C3CC3)n2)n[nH]1 [Example 2] , IC50: 1550

Short answer for C[C@@H]1[C@@H]2CN(c3nc(Nc4ccc([C@@H](C)CO)nc4)ncc3F)C[C@]12NC(=O)C1CC1 (single isomer, unassigned) [Example 103] : IC50 was 1740

IC50 measured on CNC(=O)c1ncc(Nc2nccc(N3C[C@H]4CC[C@@H](C3)N4C(=O)[C@@H]3C[C@H]3C#N)n2)cc1Cl [Example 31] = 78

Quick note, IC50 for CCNC(=O)c1ccc(Nc2nccc(N3CC4CC(C3)N4C(=O)C(C)(F)F)n2)cc1 [Example 114] landed at 955

// sample Cn1cc(Nc2nccc(N3C[C@H]4CC[C@@H](C3)N4C[C@H]3C[C@@H]3C#N)n2)cn1 [Example 70] , its IC50 was 259

// recorded IC50 for Cc1cnc(Nc2ccc(OCCO)nc2)nc1N1C[C@H]2[C@@H](C)[C@@]2(NC(=O)[C@H]2C[C@@H]2C#N)C1 [Example 98] : 13

IC50 measured on CNC(=O)c1cc(Nc2nccc(N3C[C@H]4CC[C@@H](C3)N4C(=O)[C@@H]3CC3(F)F)n2)cc(CO)n1 [Example 41] = 201

Given item CNC(=O)c1ncc(Nc2ncc(F)c(N3C[C@@H]4[C@H](C)[C@]4(NC(=O)C4CC4)C3)n2)cc1C [Example 101] , the value recorded as its IC50 is 1880

Record N#CC1(CN2[C@@H]3CC[C@H]2CN(c2ccnc(Nc4cn[nH]c4)n2)C3)CC1 [Example 71] , field IC50: 153

For record NC(=O)c1ncc(Nc2nccc(N3C[C@H]4CC[C@@H](C3)N4C(=O)[C@@H]3CC3(F)F)n2)cc1F [Example 117] the listed IC50 is 114

Summary for this compound, CCNC(=O)N1[C@@H]2CC[C@H]1CN(c1ccnc(Nc3cnc(C(=O)NC)c(C)c3)n1)C2 [Example 91] : IC50 is 183

Looking up CC(C)(C#N)c1ccc(Nc2nccc(N3C[C@H]4CC[C@@H](C3)N4C(=O)[C@@H]3CC3(F)F)n2)cn1 [Example 26] , I found its IC50 recorded as 60

compound Cn1cc(Nc2nccc(N3C[C@H]4CC[C@@H](C3)N4Cc3ccno3)n2)cn1 [Example 56] , IC50 observed: 110

Please fill in: IC50 reported for CCNC(=O)N1[C@@H]2CC[C@H]1CN(c1ccnc(Nc3cnsc3)n1)C2 [Example 74] = 67

For Cn1cc(Nc2nccc(N3C[C@H]4CC[C@@H](C3)N4c3ncc(C#N)o3)n2)cn1 [Example 78] the compound record lists IC50 as 68

Consider CNC(=O)c1ncc(Nc2nccc(N3C[C@H]4CC[C@@H](C3)N4C(=O)[C@@H]3C[C@H]3C#N)n2)cc1F [Example 27] . Its measured IC50 is 78

Record CCn1cc(Nc2nccc(N3C[C@H]4CC[C@@H](C3)N4C(=O)[C@@H]3C[C@H]3C#N)n2)cn1 [Example 24] . Reported IC50: 13

CCNC(=O)c1ccc(Nc2ncc(F)c(N3CC4CC(C3)N4C(=O)C(F)(F)F)n2)cc1C [Example 116] yielded IC50 of 1470

Reported IC50 of CCNC(=O)c1ccc(Nc2ncc(F)c(N3CC4CC(C3)N4C(=O)C(C)(C)F)n2)cc1C [Example 112] : 4070

Kindly note the recorded IC50 for NS(=O)(=O)c1ccc(Nc2ncc(F)c(N3C[C@H]4CC[C@@H](C3)N4C(=O)C3CC3)n2)cn1 [Example 4] , which is 659

Entry Cn1cc(Nc2nccc(N3C[C@H]4CC[C@@H](C3)N4C(N)=O)n2)cn1 [Example 76] — recorded IC50 = 537

In plain terms, CNC(=O)c1ncc(Nc2nccc(N3C[C@H]4CC[C@@H](C3)N4C(=O)[C@H]3C[C@@H]3F)n2)cc1C [Example 44] has a documented IC50 of 475

Noted for Cn1cc(Nc2nccc(N3C[C@H]4CC[C@@H](C3)N4Cc3nccs3)n2)cn1 [Example 57] : its IC50 reads 294

In plain terms, CC(CC#N)N1[C@@H]2CC[C@H]1CN(c1ccnc(Nc3cnn(C)c3)n1)C2 (stereo partly drawn) [Example 80] has a documented IC50 of 190

Form field IC50, entry O=C(c1ccno1)N1[C@@H]2CC[C@H]1CN(c1ccnc(Nc3cn[nH]c3)n1)C2 [Example 17] : 684

Lab note: Cn1cc(Nc2nccc(N3C[C@H]4CC[C@@H](C3)N4C3CN(S(C)(=O)=O)C3)n2)cn1 [Example 60] gave IC50 of 36

Data provenance is patent US9663526B2.
